Measured Target: Signal transducer and activator of transcription 3 (Homo sapiens)
Sequence (P40763 whole entry): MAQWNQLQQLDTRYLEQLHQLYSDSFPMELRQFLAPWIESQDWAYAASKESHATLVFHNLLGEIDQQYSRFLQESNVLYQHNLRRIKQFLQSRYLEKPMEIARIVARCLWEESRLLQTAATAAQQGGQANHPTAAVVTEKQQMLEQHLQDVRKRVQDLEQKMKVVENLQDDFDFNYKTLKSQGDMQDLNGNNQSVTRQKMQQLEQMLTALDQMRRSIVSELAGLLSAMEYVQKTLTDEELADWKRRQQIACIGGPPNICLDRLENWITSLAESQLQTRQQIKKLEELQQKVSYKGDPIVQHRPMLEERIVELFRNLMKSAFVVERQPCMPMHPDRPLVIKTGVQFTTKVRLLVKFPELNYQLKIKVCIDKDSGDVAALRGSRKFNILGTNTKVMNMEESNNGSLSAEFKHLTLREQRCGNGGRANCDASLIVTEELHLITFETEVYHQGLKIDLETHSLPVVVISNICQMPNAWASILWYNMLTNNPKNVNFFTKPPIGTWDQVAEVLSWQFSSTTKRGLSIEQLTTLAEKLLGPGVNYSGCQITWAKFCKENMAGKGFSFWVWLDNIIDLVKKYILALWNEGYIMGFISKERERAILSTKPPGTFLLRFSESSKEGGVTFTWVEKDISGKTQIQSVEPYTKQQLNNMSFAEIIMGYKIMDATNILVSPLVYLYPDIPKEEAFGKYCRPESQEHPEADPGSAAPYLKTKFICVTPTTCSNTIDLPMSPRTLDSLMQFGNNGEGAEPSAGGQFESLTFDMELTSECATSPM
Protocol Text: Inhibition of IL-6 induced STAT3 phosphorylation in human TF-1 cells by AlphaLISA assay
Measured Quantity: IC50 (µM)

>>> value("CNC(=O)c1nnc(NC(=O)N2CCC2)cc1Nc1cccc(-c2ncn(C)n2)c1OC [US11053219, Example 28]")
5.9

These measurements were taken from BindingDB's records for doi:10.1021/acs.jmedchem.2c01800.
